- System: HT-29
- PROTOCOL SUMMARY: NCI tumour cell line growth inhibition, 48 h
Calls of active or inactive are those of the source. Cut-off read from the data, not from the text of the source: active = GI50 up to about 1.1 µM and inactive = higher.
Please go through the items and note down their GI50.

Some compounds with recorded GI50:
>>> df
                                   compound  assay_endpoint            obs_value
0  COc1cc(-c2oc3c(OC)c(O)c(OC)c(O)c3c(=O)c2OC)cc(OC)c1OC            GI50   50.4 µM (inactive)
1  CC(C)(C)C1CCP(=O)(c2ccccc2)CC1 (stereo not given)            GI50  > 100 µM (inactive)
2        COc1cc(O)c2c(c1)O[C@@H]1OCC[C@H]21            GI50  > 100 µM (inactive)
3  COC(=O)c1sc2nc(Nc3ccccc3)/c(=N\c3ccccc3)sc2c1C            GI50  > 100 µM (inactive)

Let's switch to this compound now.
Q: Endpoint output: GI50 of `Cc1ccc(NC(=O)CCc2nnc3s/c(=C\c4cccc([N+](=O)[O-])c4)c(=O)n23)cc1` . Value?
Result: > 100 µM (inactive)

====

- Test system: SNB-75
- PROTOCOL SUMMARY: NCI tumour cell line growth inhibition, 48 h
The source made the active and inactive calls. Rule as the data show it: active = GI50 up to about 1.1 µM and inactive = higher.
ASSAY ENDPOINT: GI50

>>> print(df.to_string())
                                   molecule  assay_endpoint            obs_value
0  COc1ccc(C2C3=C(COC3=O)Oc3cc4c(cc32)OCO4)cc1OC (configuration not stated)            GI50   1.82 µM (inactive)
1  COc1ccc(/C=N/n2c(=O)[nH]c3ccccc3c2=O)cc1            GI50   50.8 µM (inactive)
2  Cc1ccc(N2C(=O)CC(=O)N(NC(=O)C(C)Oc3ccccc3C)C2=S)cc1 (configuration not stated)            GI50  > 100 µM (inactive)
3  CCOC(=O)N1C=CC(=C2C(=C3C=CN(C(=O)OCC)C=C3)C(=C3C=CN(C(=O)OCC)C=C3)C2=C2C=CN(C(=O)OCC)C=C2)C=C1            GI50   47.1 µM (inactive)
4  COc1ccc(N2/C(=N/c3ccccc3)SC(=N/S(=O)(=O)c3ccccc3)/C2=N\S(=O)(=O)c2ccccc2)cc1            GI50   19.4 µM (inactive)

State the recorded GI50 for every item in the following list.
1. CC(NNC(=O)c1cc[n+]([BH2-]C#N)cc1)c1ccc(F)cc1 (configuration not stated)
2. Cn1c(=O)c2c(no[n+]2[O-])c2ccccc21
3. CCCCCC/C=C\CCCCCCCCC(=O)c1cccc(OC)c1OC
4. N#CC(/C(=N\NC(N)=S)C(=O)NC1C2CC3CC(C2)CC1C3)c1ccc(Cl)cc1 (configuration not stated)
5. CC(=O)OC1COC(n2nc(/C=C/c3ccc(Cl)cc3)c(=O)n(/N=C/c3ccccc3)c2=S)C(OC(C)=O)C1OC(C)=O (configuration not stated)
6. N#Cc1nc(CCc2nc(C#N)c(N)o2)oc1N
7. Cc1ccc(NC(=O)CC2Sc3ccccc3NC2=O)c(C)c1 (configuration not stated)
8. Nc1ccn(C=C=CCO)c(=O)n1

Result:
> 100 µM (inactive)
18.6 µM (inactive)
> 100 µM (inactive)
> 100 µM (inactive)
> 100 µM (inactive)
> 10 µM (inactive)
4.52 µM (inactive)
> 93.8 µM (inactive)

For each of the molecules below, note its GI50.
1. COC(=O)[C@H](Cc1c[nH]c2ccccc12)NC(=O)c1ccccc1I
2. CC(=O)OC(=O)O/C=C\CCl
3. N#CSCC1COc2ccccc2O1 (configuration not stated)

Result:
["11.8 µM (inactive)", "> 100 µM (inactive)", "> 10 µM (inactive)"]

Dear colleague, could you please provide GI50 for the molecules listed below?
1. Cc1ccc(OC2CC(n3cnc4ncnc(Cl)c43)OC2Oc2ccc(C)cc2)cc1 (configuration not stated)
2. Cc1nnc2sc(N/N=C/c3ccccc3)nn12
3. CCN(CC)C1=Nc2ccccc2-n2c(C)cnc2C1
4. CCOC(=O)C(CC#Cc1ccc(C#CCC(NC(C)=O)C(=O)OCC)cc1)NC(C)=O (configuration not stated)
5. Cc1ccc(S(=O)(=O)Nc2ccccc2C(=O)c2ccc(C)c(C)c2)cc1
6. COc1cc([C@@H]2c3cc4c(cc3[C@@H](NC(=O)c3cccc(F)c3)C3COC(=O)[C@@H]32)OCO4)cc(OC)c1O (some centres not stated)

Result:
["15.6 µM (inactive)", "> 100 µM (inactive)", "> 100 µM (inactive)", "> 100 µM (inactive)", "> 100 µM (inactive)", "1.23 µM (inactive)"]
